# protocolSummary: Half life in dog plasma at 2 uM up to 4 hrs by LC/MS/MS analysis
# Assay type: ADME, cell-free, Canis lupus familiaris
propertyLabel: half-life at 2 µM (h)

INSERT INTO measurements (smilesstring, unitsymbol, relationoperator, observedmeasurement) VALUES
  ('CC(C)[C@@H]1NC(=O)C(C)(C)/C=C/c2cc3cc(ccc3cn2)[C@@H](C)OC(=O)[C@@H]2CCCN(N2)C(=O)[C@H](C)NC1=O', 'h', '>', 25),
  ('CC(C)[C@@H]1OC(=O)C2(/C=C/c3ccc4ccc(nc4c3)[C@@H](C)NC(=O)[C@@H]3CCCN(N3)C(=O)[C@H](C)NC1=O)COCOC2', 'h', '>', 25),
  ('CO[C@@H]1/C=C/c2cc3cc(ccc3cn2)[C@@H](C)OC(=O)[C@@H]2CCCN(N2)C(=O)[C@H](C)NC(=O)[C@H](C(C)C)NC(=O)[C@@H]1C', 'h', '=', 17.4),
  ('CC(C)[C@@H]1NC(=O)C/C=C/c2cc3cc(ccc3cn2)[C@@H](C)OC(=O)[C@@H]2CCCN(N2)C(=O)[C@H](C)NC1=O', 'h', '=', 6.95),
  ('CC(C)[C@@H]1OC(=O)C(C)(C)/C=C/c2ccc3ccc(nc3c2)[C@@H](C)NC(=O)[C@@H]2CCCN(N2)C(=O)[C@H](C)NC1=O', 'h', '>', 25),
  ('CC(C)[C@@H]1OC(=O)C(C)(C)/C=C/c2cc3cc(ccc3cn2)[C@@H](C)NC(=O)[C@@H]2CCCN(N2)C(=O)[C@H](C)NC1=O', 'h', '=', 12.2);
